These measurements were taken from ChEMBL document CHEMBL1151076.

Kindly state PEI for each of the entries shown.
system: Mus musculus; assay: Peroxisomal enzyme induction in mice after administration of 400 mg/kg perorally for 4 days was determined.; format: functional; conditions: route oral

INSERT INTO assay_data (compound, measured_property, test_result) VALUES
  ('CN(C)C(=O)CCS[C@H](SCCC(=O)[O-])c1cccc(/C=C/c2ccc3ccc(Cl)cc3n2)c1.[Na+]', 'PEI', '65%'),
  ('CC(S[C@H](CCc1ccccc1C(C)(C)O)c1cccc(/C=C/c2ccc3ccc(Cl)cc3n2)c1)C(C)C(=O)O (stereo not given in full)', 'PEI', '673%'),
  ('CC(C)(CC(=O)O)S[C@H](CCc1ccccc1C(C)(C)O)c1cccc(/C=C/c2ccc3ccc(Cl)cc3n2)c1', 'PEI', '-10%'),
  ('CN(C)C(=O)CCSC(SCCC(=O)[O-])c1cccc(/C=C/c2ccc3ccc(Cl)cc3n2)c1.[Na+] (stereo not given)', 'PEI', '318%');

For the next question, use this compound.
Given the compound C[C@@H](CC(=O)O)S[C@H](CCc1ccccc1C(C)(C)O)c1cccc(/C=C/c2ccc3ccc(Cl)cc3n2)c1 , what is its reported PEI?
24%

----------
system: Mus musculus; assay: Peroxisomal enzyme induction in mice after administration of 400 mg/kg perorally for 4 days was determined.; assay type: functional; settings: route oral
# PEI >= 90% gives 1 (yes), anything below gives 0 (no)

INSERT INTO measurements (molecule, class) VALUES
  ('CC(CS[C@H](CCc1ccccc1C(C)(C)O)c1cccc(/C=C/c2ccc3ccc(Cl)cc3n2)c1)CC(=O)O (some centres not stated)', '0 (no)'),
  ('CC(C)(CS[C@H](CCc1ccccc1C(C)(C)O)c1cccc(/C=C/c2ccc3ccc(Cl)cc3n2)c1)CC(=O)O', '0 (no)'),
  ('CCC(CC(=O)O)S[C@H](CCc1ccccc1C(C)(C)O)c1cccc(/C=C/c2ccc3ccc(Cl)cc3n2)c1 (some centres not stated)', '1 (yes)'),
  ('CC(C)(O)c1ccccc1CC[C@@H](SCC1(CC(=O)O)CC1)c1cccc(/C=C/c2ccc3ccc(Cl)cc3n2)c1 [MONTELUKAST]', '0 (no)');

Confirm if PEI reported for the molecule C[C@H](CC(=O)O)S[C@H](CCc1ccccc1C(C)(C)O)c1cccc(/C=C/c2ccc3ccc(Cl)cc3n2)c1 is 90% or above.
1 (yes)

And the next one, C[C@H](S[C@H](CCc1ccccc1C(C)(C)O)c1cccc(/C=C/c2ccc3ccc(Cl)cc3n2)c1)[C@@H](C)C(=O)O ?
1 (yes)

----------
test: Bioavailability in squirrel monkey; format: ADME, organism-based; conditions: saimiri, in vivo; read-out: Bioavailabiility
measured_property: bioavailability (%)
Numbers only, in %.

Form field: reported bioavailability of CC(C)(O)c1ccccc1CC[C@@H](SCC1(CC(=O)O)CC1)c1cccc(/C=C/c2ccc3ccc(Cl)cc3n2)c1
42

----------
Molecular target: Cysteinyl leukotriene receptor 1 (Cavia porcellus, UniProt Q2NNR5)
Sequence (Q2NNR5 whole entry): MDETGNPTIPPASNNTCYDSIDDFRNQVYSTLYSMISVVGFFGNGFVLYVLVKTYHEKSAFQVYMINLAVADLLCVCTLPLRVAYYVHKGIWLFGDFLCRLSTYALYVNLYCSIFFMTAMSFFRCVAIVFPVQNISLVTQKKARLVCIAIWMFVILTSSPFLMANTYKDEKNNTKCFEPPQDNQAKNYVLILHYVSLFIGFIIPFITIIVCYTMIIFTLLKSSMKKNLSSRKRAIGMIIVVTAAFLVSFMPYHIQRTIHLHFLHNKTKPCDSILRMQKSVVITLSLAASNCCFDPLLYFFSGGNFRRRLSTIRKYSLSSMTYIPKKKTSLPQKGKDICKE
Experiment: Concentration required for inhibition of binding of [3H]-LTD4 to guinea pig lung membranes (different expt)
Format: tissue-based, Membrane
measured_property: IC50 (nM)
Give bare numbers, in nM.

Item CN(C)C(=O)CCSC(SCCC(=O)[O-])c1cccc(/C=C/c2ccc3ccc(Cl)cc3n2)c1.[Na+] (stereo unspecified) with Cysteinyl leukotriene receptor 1 (Cavia porcellus, UniProt Q2NNR5) - IC50?
2.5
